Test system: T. vaginalis
Assay: Trichomonas resorufin assay
Assay type: cell-based
Settings: Trichomonas vaginalis, read-out: IC50 T. vaginalis
pIC50: −log10 of the molar value.
readout_type: pIC50

Guide cases for pIC50, answers given:
chemical_smiles: CCCCCNC(=N)CCNC(=O)c1cc(NC(=O)c2cc(NC(=O)c3ccc(/C=C/c4cnc5ccccc5c4)cc3)cn2C)cn1C
target_system: T. vaginalis
pIC50: 5.30 to 6.00
//
chemical_smiles: Cn1cc(NC(=O)c2cc(NC(=O)c3ccc(/C=C/c4cnc5ccccc5c4)cc3)cn2C)cc1C(=O)NCCOCCOCCO
target_system: T. vaginalis
pIC50: 4.30 to 5.30
//
chemical_smiles: CN1CCN(C(=N)CCNC(=O)c2cc(NC(=O)c3cc(NC(=O)c4ccc(/C=C/c5cnc6ccccc6c5)cc4)cn3C)cn2C)CC1
target_system: T. vaginalis
pIC50: 4.30 to 5.30

Can you look up the measured pIC50 of CCCCCCC/N=C(\CCNC(=O)c1cc(NC(=O)c2cc(NC(=O)c3ccc(/C=C/c4ccc(N(C)C)cc4)nc3)cn2C)cn1C)NCCCCCCC for me?
4.30 to 5.30

Record request: pIC50 value, item CCCCCCCC[N+](C)(C)CCNC(=O)c1cc(NC(=O)c2cc(NC(=O)c3ccc(/C=C/c4cnc5ccccc5c4)cc3)cn2C)cn1C
4.30 to 5.30

Look up pIC50: COc1cccc(/C=C/c2ccc(C(=O)Nc3cc(C(=O)Nc4cc(C(=O)NCCC(=N)NC(C)C)n(C)c4)n(C)c3)cc2)c1
4.30 to 5.30

---

System: T. vaginalis
Assay: Trichomonas resorufin assay
Type: cell-based
Conditions: Trichomonas vaginalis, read-out: IC50 T. vaginalis
readout_type: IC50

chemical_smiles: CC/N=C(\N)CCNC(=O)c1cc(NC(=O)c2cc(NC(=O)c3ccc(/C=C/c4cnc5ccccc5c4)cc3)cn2C)cn1C
readout_type: IC50
recorded_value: < 1 µM

Reported IC50, molecule CCCCCCCCCCCCCCCCCC[N+](C)(C)CCNC(=O)c1cc(NC(=O)c2cc(NC(=O)c3ccc(/C=C/c4cnc5ccccc5c4)cc3)cn2C)cn1C : ____
> 50 µM

Name the recorded IC50 for CC(C)=CCC/C(C)=C/CNC(=O)c1cc(NC(=O)c2cc(NC(=O)c3ccc(/C=C/c4cnc5ccccc5c4)cc3)cn2C)cn1C .
5 to 50 µM

IC50 for Cn1cc(NC(=O)c2cc(NC(=O)c3ccc(/C=C/c4cnc5ccccc5c4)cc3)cn2C)cc1C(=O)NCCC(=N)N1CCSCC1 ?
1 to 5 µM

Reported IC50, molecule CCCCCCCCCCCC[N+](C)(C)CCNC(=O)c1cc(NC(=O)c2cc(NC(=O)c3ccc(/C=C/c4cnc5ccccc5c4)cc3)cn2C)cn1C : ____
5 to 50 µM

For CCCCCCCCCC[N+](C)(C)CCNC(=O)c1cc(NC(=O)c2cc(NC(=O)c3ccc(/C=C/c4cnc5ccccc5c4)cc3)cn2C)cn1C , what is its reported IC50?
5 to 50 µM

What value of IC50 has been recorded for this entry: CCCCCCCCC[N+](C)(C)CCNC(=O)c1cc(NC(=O)c2cc(NC(=O)c3ccc(/C=C/c4cnc5ccccc5c4)cc3)cn2C)cn1C
5 to 50 µM

I would be grateful if you could share the reported IC50 for CCNC(=O)c1cc(NC(=O)c2cc(NC(=O)c3ccc(/C=C/c4cnc5ccccc5c4)cc3)cn2C)cn1C .
1 to 5 µM

Requested read-out: IC50. Entry: [H]/N=C(\CCNC(=O)c1cc(NC(=O)c2cc(NC(=O)c3ccc(C=Cc4ccc5nonc5c4)cc3)cn2C)cn1C)N1CCSCC1
1 to 5 µM

Please look up its IC50: Cn1cc(NC(=O)c2ccc(/C=C/c3cnc4ccccc4c3)cc2)cc1C(=O)Nc1cc(C(=O)N2CCSCC2)n(C)c1
5 to 50 µM
